- System under test: CDK2/CycE (Homo sapiens)
- Experiment summary: CDK2/CycE kinase assay (TR-FRET, 2 mM ATP)
- Protocol conditions: 2 mM ATP (high ATP); median; read-out: CDK2/CyclinE, 2 mM ATP (high ATP), IC50 (median)
- Method: CDK2/CycE-inhibitory activity of compounds of the present invention was quantified employing the CDK2/CycE TR-FRET assay as described in the following paragraphs. […] The resulting mixture was incubated 1 h at 22° C. to allow the formation of complex between the phosphorylated biotinylated peptide and the detection reagents. Subsequently the amount of phosphorylated substrate was evaluated by measurement of the resonance energy transfer from the Eu-chelate to the streptavidine-XL. […]
Hi there, I'd appreciate the recorded pIC50 for every entry that follows.
API: returns pIC50 as number; meaning -log10 of concentration in mol/L.

Ask: Dear colleague, I am looking for the recorded pIC50 of the following compound: Clc1ccc2[nH]c(CNc3nc(N4CCOCC4)nc4c(Br)cnn34)nc2c1
Reply: 5.33

Ask: What do you get for CCN(C)c1nc(NCc2nc3ccccc3[nH]2)n2ncc(Br)c2n1 ?
Reply: 5.27

Ask: What do you get for Brc1cnn2c(NCc3ncc(-c4ccccc4)[nH]3)nc(N3CCOCC3)nc12 ?
Reply: 5.85

Ask: What do you get for Fc1ccc2[nH]c(CNc3nc(N4CCOCC4)nc4c(Cl)cnn34)nc2c1F ?
Reply: 4.92

Ask: What do you get for C[C@@H]1CN(c2nc(NCc3nnc(-c4ccccc4)[nH]3)n3ncc(Br)c3n2)C[C@H](C)N1C ?
Reply: 4.88

Ask: What do you get for Fc1cccc(-c2cnc(CNc3nc(N4CCOCC4)nc4c(Br)cnn34)[nH]2)c1 ?
Reply: 5.64

Ask: What do you get for CN(CC(C)(C)O)c1nc(NCc2nc3cc(F)c(Cl)cc3[nH]2)n2ncc(C3CC3)c2n1 ?
Reply: 4.97

Ask: What do you get for CN1CCN(c2nc(NCc3nc4c(F)c(F)ccc4[nH]3)n3ncc(Br)c3n2)CC1 ?
Reply: 4.82

Ask: What do you get for O[C@@H]1CCN(c2nc(NCc3nc4ccccc4[nH]3)n3ncc(Br)c3n2)C1 ?
Reply: 4.98

Ask: What do you get for COc1ccccc1-c1nnc(CNc2nc(N3CCOCC3)nc3c(Br)cnn23)[nH]1 ?
Reply: 5.04

Ask: What do you get for Brc1cnn2c(NCc3nc4ccccc4[nH]3)nc(N3CC4(COC4)C3)nc12 ?
Reply: 4.90

Ask: What do you get for Brc1cnn2c(NCc3nc4ccccc4[nH]3)nc(OC3CCCCC3)nc12 ?
Reply: 4.82

Ask: What do you get for COC(=O)C1CCN(c2nc(NCc3nc4ccccc4[nH]3)n3ncc(Br)c3n2)CC1 ?
Reply: 5.19

Ask: What do you get for Cc1cc2nc(CNc3nc(N4CCN(C)CC4)nc4c(Br)cnn34)[nH]c2cc1C ?
Reply: 5.53

Ask: What do you get for Brc1cnn2c(NCc3nc4ccccc4[nH]3)nc(N3CCOCC3C3CC3)nc12 (centres unmarked) ?
Reply: 5.33

Ask: What do you get for FC(F)(F)c1cnn2c(NCc3nnc(-c4ccccc4)[nH]3)nc(N3CCOCC3)nc12 ?
Reply: 5.28

Ask: What do you get for CC(C)c1cnn2c(NCc3nc4ccccc4[nH]3)nc(N3CC4(COC4)C3)nc12 ?
Reply: 4.83

Ask: What do you get for Cc1ccc2[nH]c(CNc3nc(N4CCOCC4)nc4c(Br)cnn34)nc2c1 ?
Reply: 5.52

Ask: What do you get for N#Cc1cccc(-c2c[nH]c(CNc3nc(N4CCOCC4)nc4c(Br)cnn34)n2)c1 ?
Reply: 5.99

Ask: What do you get for Fc1cccc(-c2nnc(CNc3nc(N4CCOCC4)nc4c(C(F)(F)F)cnn34)[nH]2)c1 ?
Reply: 5.74

Ask: What do you get for CN1CCN(c2nc(NCc3nc4cc(F)ccc4[nH]3)n3ncc(Br)c3n2)CC1 ?
Reply: 4.92

Ask: What do you get for CN(CC(C)(C)O)c1nc(NCc2nc3cc(OC(F)(F)F)ccc3[nH]2)n2ncc(Br)c2n1 ?
Reply: 5.09

###

- System under test: CDK12 (nuclear staining in CAL-120 cells) (Homo sapiens, UniProt Q9NYV4)
- Construct: endogenous in cells; host or cells: CAL-120 human breast cancer cells (DSMZ ACC 459)
- Sequence (Q9NYV4 whole entry): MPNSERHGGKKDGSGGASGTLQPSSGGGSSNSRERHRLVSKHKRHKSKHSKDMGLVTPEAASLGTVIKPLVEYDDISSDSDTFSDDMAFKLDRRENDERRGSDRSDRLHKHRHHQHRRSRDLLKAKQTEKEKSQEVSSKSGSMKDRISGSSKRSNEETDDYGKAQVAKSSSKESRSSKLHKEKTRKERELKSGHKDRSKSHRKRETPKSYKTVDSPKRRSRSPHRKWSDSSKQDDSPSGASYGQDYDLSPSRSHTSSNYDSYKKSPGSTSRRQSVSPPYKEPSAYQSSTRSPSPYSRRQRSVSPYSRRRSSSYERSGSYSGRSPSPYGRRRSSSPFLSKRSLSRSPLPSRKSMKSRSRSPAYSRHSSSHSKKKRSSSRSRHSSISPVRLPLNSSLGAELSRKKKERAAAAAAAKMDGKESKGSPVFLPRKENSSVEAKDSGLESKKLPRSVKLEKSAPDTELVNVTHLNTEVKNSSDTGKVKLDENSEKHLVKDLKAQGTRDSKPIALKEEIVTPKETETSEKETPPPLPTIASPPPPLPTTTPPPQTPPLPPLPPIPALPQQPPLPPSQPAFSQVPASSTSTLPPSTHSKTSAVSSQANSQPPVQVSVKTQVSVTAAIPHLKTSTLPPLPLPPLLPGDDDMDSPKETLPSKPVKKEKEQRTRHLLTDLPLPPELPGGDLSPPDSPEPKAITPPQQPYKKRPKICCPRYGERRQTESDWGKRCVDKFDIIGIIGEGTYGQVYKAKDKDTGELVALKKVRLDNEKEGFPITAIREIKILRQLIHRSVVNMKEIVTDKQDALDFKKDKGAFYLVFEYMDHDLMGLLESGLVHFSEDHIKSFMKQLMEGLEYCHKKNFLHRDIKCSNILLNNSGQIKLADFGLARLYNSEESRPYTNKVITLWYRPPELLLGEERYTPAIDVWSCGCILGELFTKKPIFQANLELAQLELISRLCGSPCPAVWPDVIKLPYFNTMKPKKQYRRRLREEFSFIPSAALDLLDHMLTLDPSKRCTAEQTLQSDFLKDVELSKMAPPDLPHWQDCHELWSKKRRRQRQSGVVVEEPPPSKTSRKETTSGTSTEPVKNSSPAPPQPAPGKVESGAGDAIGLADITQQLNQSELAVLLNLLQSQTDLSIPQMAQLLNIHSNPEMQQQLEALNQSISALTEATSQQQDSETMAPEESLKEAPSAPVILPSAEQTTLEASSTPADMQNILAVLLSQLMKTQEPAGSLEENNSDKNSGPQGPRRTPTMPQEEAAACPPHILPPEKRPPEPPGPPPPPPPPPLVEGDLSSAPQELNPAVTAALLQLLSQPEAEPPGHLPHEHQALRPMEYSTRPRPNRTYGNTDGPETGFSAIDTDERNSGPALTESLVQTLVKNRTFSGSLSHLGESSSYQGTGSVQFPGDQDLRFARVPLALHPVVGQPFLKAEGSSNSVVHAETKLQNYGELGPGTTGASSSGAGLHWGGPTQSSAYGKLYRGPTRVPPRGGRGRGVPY
- Sequence (O75909 whole entry partner): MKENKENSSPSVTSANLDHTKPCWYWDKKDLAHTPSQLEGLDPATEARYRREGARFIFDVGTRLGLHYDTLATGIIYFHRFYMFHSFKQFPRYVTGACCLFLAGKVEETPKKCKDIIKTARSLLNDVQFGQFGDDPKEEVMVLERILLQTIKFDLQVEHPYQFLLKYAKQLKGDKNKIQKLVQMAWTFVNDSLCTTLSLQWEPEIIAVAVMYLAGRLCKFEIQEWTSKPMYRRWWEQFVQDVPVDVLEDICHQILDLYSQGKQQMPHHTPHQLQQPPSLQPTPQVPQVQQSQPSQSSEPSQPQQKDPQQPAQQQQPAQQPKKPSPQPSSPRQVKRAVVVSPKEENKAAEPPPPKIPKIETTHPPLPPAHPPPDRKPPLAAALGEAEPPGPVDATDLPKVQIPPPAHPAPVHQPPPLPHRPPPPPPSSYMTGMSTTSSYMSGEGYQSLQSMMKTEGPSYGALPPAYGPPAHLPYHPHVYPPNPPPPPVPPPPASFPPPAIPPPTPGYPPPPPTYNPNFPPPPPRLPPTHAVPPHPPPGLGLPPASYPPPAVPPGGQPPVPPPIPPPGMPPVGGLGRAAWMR
- Experiment summary: CDK12 nuclear protein level: immunofluorescence/high content analysis (CAL-120)
- Type: cell-based
- Protocol conditions: CAL-120 cells, 24 h, immunofluorescence; 50% reduction of nuclear CDK12 staining intensity; median; read-out: CDK12 degradation IF, DC50- [mol/l] (median)
DC50 strictly under 6 nM means YES; at 6 nM or over means NO.

Ask: DC50 under 6 nM? Item: CN(CC(C)(C)O)c1nc(NCc2nc3c(F)c(Cl)ccc3[nH]2)n2ncc(C3CC3)c2n1
Reply: YES

Ask: What do you get for Cc1ccccc1-c1cnc(CNc2nc(N3CCOCC3)nc3c(Br)cnn23)[nH]1 ?
Reply: YES

Ask: What do you get for O=C(O)C(F)(F)F.c1ccc2[nH]c(CNc3nc(N4CCOCC4)nc4c(-c5ccnnc5)cnn34)nc2c1 ?
Reply: NO

Ask: What do you get for CC(C)c1cnn2c(NCc3nc4ccccc4[nH]3)nc(NCC(C)(C)O)nc12 ?
Reply: NO

Ask: What do you get for CN1CCN(c2nc(NCc3nc4cc(F)c(Cl)cc4[nH]3)n3ncc(C4CC4)c3n2)CC1 ?
Reply: NO

Ask: What do you get for Fc1cccc(-c2cnn3c(NCc4nc5ccccc5[nH]4)nc(N4CCOCC4)nc23)c1 ?
Reply: NO

Ask: What do you get for Brc1cnn2c(NCc3nc4ccccc4[nH]3)nc(NCC3CC3)nc12 ?
Reply: NO

Ask: What do you get for CN1CCC(Oc2nc(NCc3nc4ccccc4[nH]3)n3ncc(Br)c3n2)CC1 ?
Reply: NO

Ask: What do you get for Fc1cc2nc(CNc3nc(N4CCOCC4)nc4c(C5CC5)cnn34)[nH]c2cc1F ?
Reply: YES

Ask: What do you get for c1ccc2[nH]c(CNc3nc(N4CCOCC4)nc4c(C5CCC5)cnn34)nc2c1 ?
Reply: NO

Ask: What do you get for COc1cccc2[nH]c(CNc3nc(N4CCOCC4)nc4c(-c5nccs5)cnn34)nc12 ?
Reply: NO

Ask: What do you get for Fc1ccc2[nH]c(CNc3nc(N4CCOCC4)nc4c(CC(F)(F)F)cnn34)nc2c1F ?
Reply: YES

Ask: What do you get for Brc1cnn2c(NCc3nc4ccccc4[nH]3)nc(N3C[C@@H]4CCCN[C@@H]4C3)nc12 ?
Reply: YES

Ask: What do you get for Brc1cnn2c(NCc3nc4ccccc4[nH]3)nc(N3CC4(COC4)C3)nc12 ?
Reply: NO

Ask: What do you get for CN(CC1CC1)c1nc(NCc2nc3ccccc3[nH]2)n2ncc(Br)c2n1 ?
Reply: NO

###

- System under test: CDK2/CycE (Homo sapiens, UniProt P24941)
- Experiment summary: CDK2/CycE kinase assay (TR-FRET, 2 mM ATP)
- Protocol conditions: 2 mM ATP (high ATP); median; read-out: CDK2/CyclinE, 2 mM ATP (high ATP), IC50 (median)
Endpoint label: IC50 (nM)
Give the number; nM is assumed, so skip it.

Ask: Dear colleague, I am looking for the recorded IC50 of the following compound: Cc1cc2nc(CNc3nc(N(C)CC(C)(C)O)nc4c(C5CC5)cnn34)[nH]c2cc1C
Reply: 1000

Ask: What do you get for Fc1cccc(-c2nnc(CNc3nc(N4CCOCC4)nc4c(Br)cnn34)[nH]2)c1 ?
Reply: 1130

Ask: What do you get for Fc1cccc2[nH]c(CNc3nc(N4CCOCC4)nc4c(Cl)cnn34)nc12 ?
Reply: 4340

###

Hi there, I'd appreciate the recorded IC50 for every entry that follows.
- System under test: CDK2/CycE (Homo sapiens, UniProt P24941)
- Experiment summary: CDK2/CycE kinase assay (TR-FRET, 2 mM ATP)
- Protocol conditions: 2 mM ATP (high ATP); median; read-out: CDK2/CyclinE, 2 mM ATP (high ATP), IC50 (median)
Give the number; µM is assumed, so skip it.

Ask: Hello, I am looking for reported IC50 with CDK2/CycE (Homo sapiens, UniProt P24941) for Cc1ccnc2[nH]c(CNc3nc(N4CCOCC4)nc4c(C(C)C)cnn34)nc12 . Could you help?
Reply: 6.02

Ask: What do you get for OC1CCCN(c2nc(NCc3nc4ccccc4[nH]3)n3ncc(Br)c3n2)C1 (racemic) ?
Reply: 1.5

Ask: What do you get for OC1CCN(c2nc(NCc3nc4ccccc4[nH]3)n3ncc(Br)c3n2)CC1 ?
Reply: 2.89

Ask: What do you get for CCNc1nc(NCc2nc3ccccc3[nH]2)n2ncc(Br)c2n1 ?
Reply: 1.87

Ask: What do you get for COc1cccc2[nH]c(CNc3nc(N4C[C@@H]5CCCN[C@@H]5C4)nc4c(C5CC5)cnn34)nc12 ?
Reply: 17.7

Ask: What do you get for C[C@@H]1CN(c2nc(NCc3nc4ccccc4[nH]3)n3ncc(Br)c3n2)CCN1 ?
Reply: 12.3
